- System: K-562
- Assay: cell viability (% survival relative to DMSO control, bortezomib = 0%); higher = less cytotoxic
- Details: 1000 nM; 72 h
cell viability vs 90%: less than gives 1; not less than gives -1.

| Compound | Group Label |
| --- | --- |
| CN(CCCOc1ccc(Cc2ccccc2)cc1)CCC(=O)O | -1 |
| C=CCN(C)CCCCCCOc1ccc(C(=O)c2ccc(Br)cc2)c(F)c1.O=C(O)/C=C/C(=O)O [Ro 48-8071 fumarate] | 1 |
| N#Cc1ccc(N(Cc2ccc(Br)cc2)n2cnnc2)cc1 | -1 |
| CC(=O)Nc1nc(C)c(-c2ccc(Cl)c(S(=O)(=O)NCCO)c2)s1 | 1 |
| CN(CCOc1ccc(Cc2sc(O)nc2O)cc1)c1ccccn1 | -1 |
| CO[C@H]1C[C@@H]2CC[C@@H](C)[C@@](O)(O2)C(=O)C(=O)N2CCCC[C@H]2C(=O)O[C@H]([C@H](C)C[C@@H]2CC[C@@H](OCCO)[C@H](OC)C2)CC(=O)[C@H](C)/C=C(\C)[C@@H](O)[C@@H](OC)C(=O)[C@H](C)C[C@H](C)/C=C/C=C/C=C/1C | 1 |
| COc1ccc2c(NC(=O)Nc3cccc(C(F)(F)F)n3)ccnc2c1 | -1 |
